target: human NaV 1.8 channels stably expressed in HEK 293 cells (Homo sapiens (Human)); experiment: Nav1.8 Qube automated patch-clamp assay; type: cell-based; settings: human NaV1.8 in HEK 293 cells, whole-cell voltage clamp, room temperature; read-out: IC50 values (nM) for Examples in the Nav1.8 Qube Assay
MEASURED_ENDPOINT: IC50 (nM)

COMPOUND	MEASURED_ENDPOINT	MEASURED_VALUE
C[C@@H]1CN(C(=O)NC(c2ccc(F)c(Cl)c2)c2cccc(C(F)(F)F)n2)CC(=O)N1 (single isomer, unassigned) [Example 46B]	IC50	506
C[C@@H]1C(=O)NCCN1C(=O)NC(c1ccc(OC(F)(F)F)c(Cl)c1)c1cnn(C(F)(F)F)c1 (single isomer, unassigned) [Example 63A]	IC50	1.12
C[C@@H]1C(=O)NCCN1C(=O)NC(c1ccc(F)c(F)c1)c1ccc(F)c(C(F)(F)F)n1 (single isomer, unassigned) [Example 49A]	IC50	258
C[C@@H]1C(=O)NCCN1C(=O)NC(c1cnc(OC(F)F)s1)c1ccc(F)c(Cl)c1F (single isomer, unassigned) [Example 14A]	IC50	5.57
C[C@@H]1C(=O)NCCN1C(=O)NC(c1ccc(OC(F)F)nc1)c1ccc(F)c(Cl)c1 (single isomer, unassigned) [Example 73B]	IC50	20.6
O=C1NCCN(C(=O)NC(c2cnc(C(F)(F)F)nc2)c2ccc(F)c(Cl)c2F)C1C1CC1 (single isomer, unassigned) [Example 41A]	IC50	2020
C[C@@H]1C(=O)NCCN1C(=O)NC(c1ccc(C(C)(F)F)nc1)c1ccc(F)c(Cl)c1F (single isomer, unassigned) [Example 75B]	IC50	2.95
C[C@@H]1C(=O)NCCN1C(=O)NC(c1ccc(F)c(Cl)c1)c1cnc(C(F)(F)F)c(Cl)c1 (single isomer, unassigned) [Example 26A]	IC50	1.89
O=C1CN(C(=O)NC(c2cnc(C(F)(F)F)c(Cl)c2)c2ccc(F)c(Cl)c2F)CCN1 (single isomer, unassigned)	IC50	6.97
O=C1CN(C(=O)NC(c2ccc(F)c(Cl)c2)c2cccc(C(F)(F)F)n2)[C@H](CF)CN1 (single isomer, unassigned) [Example 47B]	IC50	3760
C[C@@H]1C(=O)NCCN1C(=O)NC(c1cnc(OCC(F)(F)F)c(F)c1)c1ccc(F)c(Cl)c1F (single isomer, unassigned) [Example 10A]	IC50	1.18
O=C1CN(C(=O)NC(c2ccc(F)c(Cl)c2)c2ccc(Cl)c(C(F)(F)F)n2)CCN1 (single isomer, unassigned)	IC50	1.9

====

The following compounds are shown together with reported IC50 values.
Target: human NaV 1.8 channels stably expressed in HEK 293 cells (Homo sapiens (Human), UniProt Q9Y5Y9)
Sequence (Q9Y5Y9 whole entry): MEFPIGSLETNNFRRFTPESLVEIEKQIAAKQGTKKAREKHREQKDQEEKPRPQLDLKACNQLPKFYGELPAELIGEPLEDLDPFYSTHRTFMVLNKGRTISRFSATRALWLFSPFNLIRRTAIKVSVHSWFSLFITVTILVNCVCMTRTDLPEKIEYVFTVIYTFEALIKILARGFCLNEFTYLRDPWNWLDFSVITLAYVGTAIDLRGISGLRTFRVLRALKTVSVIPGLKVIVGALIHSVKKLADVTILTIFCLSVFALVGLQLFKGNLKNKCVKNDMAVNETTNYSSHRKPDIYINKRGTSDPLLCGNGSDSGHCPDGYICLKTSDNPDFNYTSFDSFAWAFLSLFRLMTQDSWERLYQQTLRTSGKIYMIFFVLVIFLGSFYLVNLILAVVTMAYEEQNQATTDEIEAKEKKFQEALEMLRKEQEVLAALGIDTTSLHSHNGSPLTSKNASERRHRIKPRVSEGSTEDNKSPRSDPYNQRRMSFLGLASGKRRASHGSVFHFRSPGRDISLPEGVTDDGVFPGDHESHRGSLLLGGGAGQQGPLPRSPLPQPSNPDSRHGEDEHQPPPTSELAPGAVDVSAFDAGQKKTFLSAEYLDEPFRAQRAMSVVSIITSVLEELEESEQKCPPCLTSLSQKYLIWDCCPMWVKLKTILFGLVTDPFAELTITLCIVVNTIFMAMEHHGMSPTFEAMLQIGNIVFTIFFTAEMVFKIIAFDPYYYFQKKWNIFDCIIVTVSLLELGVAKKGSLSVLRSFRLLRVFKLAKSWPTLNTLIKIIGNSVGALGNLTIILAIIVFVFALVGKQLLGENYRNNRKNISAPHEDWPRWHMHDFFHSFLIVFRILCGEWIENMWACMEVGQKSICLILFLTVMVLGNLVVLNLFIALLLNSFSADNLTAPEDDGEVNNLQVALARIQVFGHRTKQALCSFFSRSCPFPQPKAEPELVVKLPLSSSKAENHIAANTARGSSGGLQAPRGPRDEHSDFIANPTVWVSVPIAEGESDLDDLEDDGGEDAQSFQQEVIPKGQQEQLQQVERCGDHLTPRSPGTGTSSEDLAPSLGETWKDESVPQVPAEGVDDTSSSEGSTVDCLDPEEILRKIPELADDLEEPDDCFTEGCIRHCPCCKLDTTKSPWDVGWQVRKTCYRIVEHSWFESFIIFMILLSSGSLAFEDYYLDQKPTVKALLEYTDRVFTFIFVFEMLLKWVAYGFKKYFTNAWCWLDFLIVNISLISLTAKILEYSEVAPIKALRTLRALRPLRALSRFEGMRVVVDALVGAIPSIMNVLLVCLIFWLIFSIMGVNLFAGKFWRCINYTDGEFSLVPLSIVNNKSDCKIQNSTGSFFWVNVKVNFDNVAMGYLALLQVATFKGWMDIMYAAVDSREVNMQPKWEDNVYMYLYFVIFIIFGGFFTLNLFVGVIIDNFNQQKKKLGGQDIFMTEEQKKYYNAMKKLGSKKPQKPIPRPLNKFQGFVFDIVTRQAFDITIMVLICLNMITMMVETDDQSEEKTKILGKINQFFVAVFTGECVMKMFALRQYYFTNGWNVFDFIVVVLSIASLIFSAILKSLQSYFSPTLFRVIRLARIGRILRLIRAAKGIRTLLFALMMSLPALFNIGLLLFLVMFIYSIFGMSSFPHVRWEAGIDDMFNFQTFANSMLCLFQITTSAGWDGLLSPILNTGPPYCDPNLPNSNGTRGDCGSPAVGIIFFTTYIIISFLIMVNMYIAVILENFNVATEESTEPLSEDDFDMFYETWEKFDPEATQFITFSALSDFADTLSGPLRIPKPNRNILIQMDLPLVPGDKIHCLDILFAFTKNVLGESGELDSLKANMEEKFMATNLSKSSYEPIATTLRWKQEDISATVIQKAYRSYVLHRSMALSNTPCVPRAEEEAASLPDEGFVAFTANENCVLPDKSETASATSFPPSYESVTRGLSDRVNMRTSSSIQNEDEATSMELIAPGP
Assay: Nav1.8 Qube automated patch-clamp assay
Type: cell-based
Settings: human NaV1.8 in HEK 293 cells, whole-cell voltage clamp, room temperature; read-out: IC50 values (nM) for Examples in the Nav1.8 Qube Assay
Protocol: Compounds were tested on human NaV 1.8 and NaV1.5 channels stably expressed in human embryo kidney (HEK) 293 cells. […] For all Qube® experiments offline analysis was used to determine percent inhibition as a function of drug concentration. IC50 values were determined by fitting to the Hill equation.

COMPOUND	IC50 [nM]
C[C@@H]1C(=O)NCCN1C(=O)NC(c1ccc(OCC(F)(F)F)nc1)c1ccc(F)c(F)c1 (single isomer, unassigned) [Example 6A]	20
C[C@@H]1C(=O)NCCN1C(=O)NC(c1cnc(C(F)(F)F)c(Cl)c1)c1ccc(Cl)c(C#N)c1 (single isomer, unassigned) [Example 23A]	17
C[C@@H]1C(=O)NCCN1C(=O)NC(c1ccc(F)c(Cl)c1)c1cc(C(F)(F)F)nn1C (single isomer, unassigned) [Example 86A]	3.59

Attribution: patent US20240246932A1
